System: Blumeria graminis
Assay: Barley powdery mildew preventive test
Format: in vivo
Settings: Table 4; treatment concentration 10 ppm; 8 days after inoculation
Method: Barley plants (variety: Akashinriki) planted in plastic pots having a diameter of 5 cm were grown indoors to the second to fourth leaf stage. Wettable powder containing the compounds indicated in Table 4 were sprayed in the same manner as in Test Example 1, and after the chemical had dried, conidia of Blumeria graminis was inoculated onto the leaves. […]
reported_metric: Control value
The response must contain the number and no unit.

Answered examples (3):
• CC1(C)N=C(c2cnc3ccccc3c2)c2cccc(F)c2C1(C)C = 6
• CC1(C)N=C(c2cnc3ccccc3c2)c2cccc(F)c2C1(F)F = 6
• CC1(C)N=C(c2cnc3ccccc3c2)c2ccccc2C1(F)F = 6

Pending compound:
Query string: Name the recorded Control value for Cc1cc(OC(C)C)ccc1C(=O)C(C)(C)NC(=O)c1sccc1C .
Result string: 67

###

test system: Sphaerotheca fuliginea; test: Cucumber powdery mildew preventive test; type: in vivo; details: in vivo
In this section we review reported Preventive value values for a set of compounds.

* CCCOc1nc2ccc(I)cc2c(=O)n1CCC [Proquinazid (b-100), Proquinazid] | 40
* Cc1ccc2nc3sc(=O)sc3nc2c1 [Chinomethionat (b-74), Chinomethionat] | 50
* Fc1ccc(Oc2ccnc3cc(Cl)cc(Cl)c23)cc1 [Quinoxyfen (b-63), Quinoxyfen] | 60
* CC(Cc1ccc(C(C)(C)C)cc1)CN1C[C@@H](C)O[C@@H](C)C1 (some centres unmarked) [Fenpropimorph (b-65), Fenpropimorph] | 33
* FC(F)C(F)(F)OCC(Cn1cncn1)c1ccc(Cl)cc1Cl (centres unmarked) [Tetraconazole (b-22), Tetraconazole] | 50
* CCC1(C(=O)N[C@H](C)c2ccc(Cl)cc2)C(C)C1(Cl)Cl (some centres unmarked) [Carpropamid] | 33
* CCCCCCCCCCCCCN1CC(C)OC(C)C1 (centres unmarked) [Tridemorph (b-66), Tridemorph] | 33

Pending compound:
Query string: Name the recorded Preventive value for C=CCOC1=NS(=O)(=O)c2ccccc21 [Probenazole (b-73), Probenazole] .
Result string: 40

###

system: Sphaerotheca fuliginea; test: Cucumber powdery mildew preventive test; type: in vivo; conditions: in vivo
reported_metric: Preventive value
The response must contain the number and no unit.

- C=CCOC(Cn1ccnc1)c1ccc(Cl)cc1Cl (centres unmarked) [Imazalil (b-20), Imazalil]: 40
- OC(Cn1cncn1)(c1ccc(F)cc1)c1ccccc1F (centres unmarked) [Flutriafol (b-34), Flutriafol]: 40
- Cc1ccc(NC(=O)c2snnc2C)cc1Cl [Tiadinil (b-45), Tiadinil]: 40

Query string: Name the recorded Preventive value for C[Si](Cn1cncn1)(c1ccc(F)cc1)c1ccc(F)cc1 [Flusilazole (b-31), Flusilazole] .
Result string: 33

Query string: Name the recorded Preventive value for O=C1CCc2cccc3c2N1CC3 [Pyroquilon (b-104), Pyroquilon] .
Result string: 7

Query string: Name the recorded Preventive value for CCCCNC(=O)n1c(NC(=O)OC)nc2ccccc21 [Benomyl (b-58), Benomyl] .
Result string: 50

Query string: Name the recorded Preventive value for S1SSSSSSS1 [Sulfur (b-96), Sulfur] .
Result string: 73

Query string: Name the recorded Preventive value for C[C@@H](NC(=O)C(C#N)C(C)(C)C)c1ccc(Cl)cc1Cl (some centres unmarked) [Diclocymet] .
Result string: 40

Query string: Name the recorded Preventive value for OC(c1cccnc1)c1c(-c2ccc(Cl)cc2F)noc1-c1ccc(F)cc1F (centres unmarked) [Compound of (XVIII) (b-92)] .
Result string: 40

Query string: Name the recorded Preventive value for CC(C)OC(=O)C(C(=O)OC(C)C)=C1SCCS1 [Isoprothiolane (b-71), Isoprothiolane] .
Result string: 40

Query string: Name the recorded Preventive value for COc1cc(F)c(-c2c(Cl)nc(C)n2-c2cccc(F)c2)c(F)c1 [Compound of formula (XIV) (b-88)] .
Result string: 40

Query string: Name the recorded Preventive value for COc1ccccc1N1CCS/C1=C(/C#N)Sc1cc(C(F)(F)F)ccc1F [Flutianil (b-77), Flutianil] .
Result string: 67

###

test system: Pyricularia oryzae; assay type: in vivo; settings: Table 3-1; treatment concentration 2 ppm
reported_metric: Control value
The response must contain the number and no unit.

Answered examples (4):
- O=C(Nc1ccccc1-c1ccc(F)c(F)c1)c1nccnc1C(F)(F)F [Pyraziflumid (b-49), Pyraziflumid]: 17
- CC1CC(C)(C)c2cccc(NC(=O)c3cn(C)nc3C(F)F)c21 (centres unmarked) [Compound of formula (II) (b-3)]: 17
- Cn1cc(C(=O)Nc2ccccc2-c2cc(F)c(F)c(F)c2)c(C(F)F)n1 [Fluxapyroxad (b-1), Fluxapyroxad]: 17
- CC1(CCl)CCC(Cc2ccc(Cl)cc2)C1(O)Cn1cncn1 (centres unmarked) [Compound of formula (VII)-1 (b-38)]: 50

Pending compound:
Query string: Any idea what Control value came out for COc1cc(F)c(-c2c(Cl)nc(C)n2-c2cccc(F)c2)c(F)c1 [Compound of formula (XIV) (b-88)] on Pyricularia oryzae?
Result string: 50

###

In this section we review reported Preventive value values for a set of molecules.
System: Sphaerotheca fuliginea
Assay: Cucumber powdery mildew preventive test
Assay type: in vivo
Details: in vivo
Protocol: In a greenhouse, cucumber (variety: Sagamihanshiro) planted in a plastic pot having a diameter of 5 cm was grown to the 3rd to 5th-leaf stage. […] In the examination, a ratio of lesion area occupied per one leaf of cucumber was determined according to the same index as in Test example 1, and the control value and the theoretical value according to Colby's formula were similarly calculated. […]
The response must contain the number and no unit.

* CCCC(Cn1cncn1)c1ccc(Cl)cc1Cl (stereo not shown) [Penconazole(b-32)] | 47

Query string: Name the recorded Preventive value for Fc1ccc(C2(Cn3nc[nH]c3=S)OC2c2ccccc2Cl)c(F)c1 (stereo not shown) [Compound of (V) (b-36)] .
Result string: 33

Query string: Name the recorded Preventive value for O=c1c2cc(F)ccc2nc(-n2cncn2)n1-c1ccc(Cl)cc1Cl [Fluquinconazole (b-30), Fluquinconazole] .
Result string: 47

Query string: Name the recorded Preventive value for CC(C)c1ccc(Cl)cc1CN(C(=O)c1c(C(F)F)nn(C)c1F)C1CC1 [Compound of formula (IV) (b-9)] .
Result string: 60

Query string: Name the recorded Preventive value for O=C(CO)[C@@H](O)[C@@H](O)[C@H](O)CO [D-tagatose (b-93), D-tagatose] .
Result string: 33

Query string: Name the recorded Preventive value for Fc1ccc([C@]2(Cn3cncn3)O[C@H]2c2ccccc2Cl)cc1 (racemic) [Epoxiconazole (b-24), Epoxiconazole] .
Result string: 40

Query string: Name the recorded Preventive value for COc1cc(C)c(C(=O)c2c(OC)ccc(Br)c2C)c(OC)c1OC [Metrafenone (b-82), Metrafenone] .
Result string: 40

###

system: Botrytis cinerea; details: in vivo
reported_metric: Preventive value
The response must contain the number and no unit.

Answered examples (3):
* CCCN(CC)CC1COC2(CCC(C(C)(C)C)CC2)O1 (stereo not shown) [Spiroxamine (b-101), Spiroxamine] | 17
* CCCOc1nc2ccc(I)cc2c(=O)n1CCC [Proquinazid (b-100), Proquinazid] | 17
* CCn1cc(C(=O)O)c(=O)c2cc3c(cc21)OCO3 [Oxolinic acid] | 17

Query string: Name the recorded Preventive value for C=CCOC(Cn1ccnc1)c1ccc(Cl)cc1Cl (stereo not shown) [Imazalil (b-20), Imazalil] .
Result string: 17

Query string: Name the recorded Preventive value for CCCC(Cn1cncn1)c1ccc(Cl)cc1Cl (stereo not shown) [Penconazole (b-32), Penconazole] .
Result string: 17

Query string: Name the recorded Preventive value for C[Si](Cn1cncn1)(c1ccc(F)cc1)c1ccc(F)cc1 [Flusilazole (b-31), Flusilazole] .
Result string: 17

###

system: Botrytis cinerea; conditions: in vivo
The threshold is inclusive: Preventive value of exactly 40 counts as Satisfied; values below receive Not satisfied.

Please review the following examples before continuing.
• OC(Cn1cncn1)(c1ccc(F)cc1)c1ccccc1F (stereo not shown) = Not satisfied
• CCC1(C(=O)N[C@H](C)c2ccc(Cl)cc2)C(C)C1(Cl)Cl (stereo partly shown) = Not satisfied
• OP(O)O = Not satisfied
• CC1=C(C(=O)Nc2ccccc2)SCCO1 = Not satisfied
• Cc1cc(C2CC2)nc(Nc2ccccc2)n1 = Satisfied
• CC(Cc1ccc(C(C)(C)C)cc1)CN1CCCCC1 (stereo not shown) = Not satisfied
• CC1COC(Cn2cncn2)(c2ccc(Oc3ccc(Cl)cc3)cc2Cl)O1 (stereo not shown) = Not satisfied
• COc1cc(C)c(C(=O)c2c(OC)ncc(Cl)c2C)c(OC)c1OC = Not satisfied

Query string: Given the entry CCCC1COC(Cn2cncn2)(c2ccc(Cl)cc2Cl)O1 (stereo not shown) , answer whether its Preventive value meets or surpasses 40.
Result string: Not satisfied

Query string: Given the entry O=c1c2cc(F)ccc2nc(-n2cncn2)n1-c1ccc(Cl)cc1Cl , answer whether its Preventive value meets or surpasses 40.
Result string: Not satisfied

Query string: Given the entry c1ccc2[nH]c(-c3cscn3)nc2c1 , answer whether its Preventive value meets or surpasses 40.
Result string: Satisfied
